Where do the numbers come from? From patent US20090304746A1.

# system-name: HLA-A*0201 (human)
# assay-details: competition with 125I-labelled standard peptide for purified HLA, gel filtration
experimental-endpoint: binding affinity ratio (IC50 of standard peptide / IC50 of test peptide)
// return just the number, without any unit appended

The examples below pair each entry with its known result.
Task: I am curious: what binding affinity ratio (IC50 of standard peptide / IC50 of test peptide) value has been reported for ILGGWVAAQL (modifications not checked) [HCV peptide … (HCV polyprotein position 1816)] ?
Result: 0.043

Task: One more binder: RVESENKVV (modifications not checked) [HCV peptide … (polyprotein position 2252)]
Result: 0.0001

Task: One more binder: IVFPDLGVRV (modifications not checked) [HCV peptide … (HCV polyprotein position 2613)]
Result: 0.0016

***
Task: I am curious: what binding affinity ratio (IC50 of standard peptide / IC50 of test peptide) value has been reported for ILAGYGAGVA (modifications not checked) [HCV peptide … (HCV polyprotein position 1856)] ?
Result: 0.0002

Task: One more binder: LAALAAYCL (modifications not checked) [HCV peptide … (HCV polyprotein position 1672)]
Result: 0.0011

Task: One more binder: QIVGGVYLL (modifications not checked) [HCV peptide … (polyprotein position 29)]
Result: 0.0015

Task: One more binder: RALAHGVRV (modifications not checked) [HCV peptide … (polyprotein position 149)]
Result: 0.0001

Task: One more binder: SMLTDPSHI (modifications not checked) [HCV peptide … (polyprotein position 2178)]
Result: 0.0053
